assay: pharmacokinetics after single oral (gavage) and intravenous dose in 0.9% saline (Example 2); design: species or system cynomolgus monkeys; details: male, cynomolgus monkey, in vivo, po, 15 mg/kg, Plasma Concentrations
Value Type: concentration at 4 hr

Request: Given `CN(C)c1cc(NC(=O)CNC(C)(C)C)c(O)c2c1C[C@H]1C[C@H]3[C@H](N(C)C)C(O)=C(C(N)=O)C(=O)[C@@]3(O)C(O)=C1C2=O` , state its recorded concentration at 4 hr.
Result: < 100 ng/mL

====

experiment: solubility in water; format: physicochemical; conditions: over the entire pH range of 1 to 14
Value Type: solubility

Request: // lookup solubility for CN(C)c1cc(NC(=O)CNC(C)(C)C)c(O)c2c1C[C@H]1C[C@H]3[C@H](N(C)C)C(O)=C(C(N)=O)C(=O)[C@@]3(O)C(O)=C1C2=O [Tigecycline]
Result: > 295 mg/mL
